Tested on: CAKI-1
Experiment: NCI tumour cell line growth inhibition, 48 h
Activity calls are given as the source filed them. No stated cut-off is given here; in the data, active = GI50 up to about 1.1 µM and inactive = higher.
Returns: one label drawn from y (active), n (inactive)

I would be grateful if you could indicate the recorded call for OCC1C2CCC3(OCCO3)C12 (stereo not drawn) .
n

* * *

Tested on: SF-295
Assay: NCI tumour cell line growth inhibition, 48 h
Active and inactive are the calls of the source. Rule as the data show it: active = GI50 up to about 1.1 µM and inactive = higher.
Your response should consist of one outcome taken from Y for active, N for inactive

[[record]]
compound = "Cc1[nH]c2ccccc2c1C1=CC(=O)N(c2ccccc2)C1=O"
system_under_test = "SF-295"
cat = "N"

[[record]]
compound = "CC/C(=N\\NS(=O)(=O)c1ccccc1)c1ccccc1"
system_under_test = "SF-295"
cat = "N"

[[record]]
compound = "CC1C(c2ccc3c(c2)OCO3)c2cc3c(cc2OC1N1CCOCC1)OCO3 (centres undefined)"
system_under_test = "SF-295"
cat = "N"

[[record]]
compound = "COc1cc2c(/C=C3/C(=O)N(c4ccccc4)c4ccccc43)c(Cl)[nH]c2cc1C"
system_under_test = "SF-295"
cat = "N"

[[record]]
compound = "O=C1C2c3[nH]c4ccccc4c3C3CCC(c4ccccc4)CC3C2C(=O)N1c1ccccc1 (centres undefined)"
system_under_test = "SF-295"
cat = "N"


Any idea what this test logged for CCOC(=O)C1=C(C)N(C2OC(COC(=O)c3ccccc3)C(OC(=O)c3ccccc3)C2OC(=O)c2ccccc2)C(=S)NC1c1ccccc1 (centres undefined) ?
N

Query: recorded result category for COC(=O)C1=CCC2c3[nH]c4ccccc4c3CCN2C1 (centres undefined) in this test
N

Hi, sorry to bother you, what did the test record for O=Cc1cc2c(o1)C(=O)c1ccccc1C2=O ?
Y

Answer briefly: the call reported for O=C(CSc1nc(-c2ccccc2)c(-c2ccccc2)[nH]1)NNC(=S)Nc1ccccc1 in this assay.
N

Data origin: ChEMBL document CHEMBL1201862
